- measurement.notes: protein stability index of a GFP-peptide fusion (GPS, HEK-293T) (PSI 1-6); higher = more stable;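 further: 24-mer peptide tiles fused after GFP, lentivirally expressed, FACS-sorted into six equal bins by GFP/DsRed ratio, decoded by Illumina sequencing, PSI is the read-weighted mean bin number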
- assay.setup: treatment: MLN4924 1 uM, 8 h; c terminus: a fixed tail appended

query.sequence: YRPLKQELQGLDYCKPTRLDLLLD [SPSB1]
protein stability index: 2.6
--
query.sequence: TITMAHLLAAREDLSKIIRTSSGT [FAM98B]
protein stability index: 2.38
--
query.sequence: FYAITTLHNLLLHQEGAKMAVRLA [CTNNB1]
protein stability index: 2.79
--
query.sequence: PDIMNLLIKSGAHFDATNLHKQTA [FEM1C]
protein stability index: 2.29
--
query.sequence: ELNFISVFWPQLPNGLEAAYEFAD [MMP1]
protein stability index: 2.15
--
query.sequence: DIQIVERKKSADVLALADEAGYYF [ADAMTSL2]
protein stability index: 3.39
--
query.sequence: INVNDLSFVTGSHVGELIIWDALD [WDR41]
protein stability index: 2.12
--
query.sequence: VLIFKSILFLPCLRKKILKIRHGW [STEAP1]
protein stability index: 2.38
--
query.sequence: RAFKIKDFANTIPGHGGIMDRFDC [CDS1]
protein stability index: 2.76
--
query.sequence: VHQLSKKEASRHAIMRSPQMVSAI [CTNNB1]
protein stability index: 3.06
--
query.sequence: KTQEHTPTPDDHVFRWLAYSYAST [CPXM2]
protein stability index: 2.2
--
query.sequence: CFRMQINHAIDIICGFLKERCFRG [OAS1]
protein stability index: 2.61
--
query.sequence: RRKREVLVEDMVSQEEAQGLPSSE [ZNF24]
protein stability index: 5.43
--
query.sequence: KLEAEKRILQEKLDQPVSAPPSPR [CCDC6]
protein stability index: 5.21
--
query.sequence: HAFQKELTCVICLNYLVDPVTICC [TRIM43]
protein stability index: 2.95
--
query.sequence: DESAIDFSAYIDSMAAVPTLELCH [CEBPD]
protein stability index: 3.31
--
query.sequence: IDASQLPHRVLETRGHAISILFGF [SMIM2]
protein stability index: 2.51
--
query.sequence: QAIDATVAAELLNHLLESMPLREG [HES6]
protein stability index: 2.3
--
query.sequence: RYFGARAILGEQRPRQRQRVYPKC [TCF25]
protein stability index: 3.58
--
query.sequence: TSVGMSFVAGGISGTVAAVLTLPF [SLC25A39]
protein stability index: 2.54
--
query.sequence: KDEWHKVFDLPESLGGIRACTLTV [KLHL13]
protein stability index: 2.89
--
query.sequence: TVGIYFGLVYRIHSVLQGFIPLFQ [TMEM40]
protein stability index: 3.16

---

- measurement.notes: protein stability index of a GFP-peptide fusion (GPS, HEK-293T) (PSI 1-6); higher = more stable
- assay.setup: treatment: MLN4924 1 uM, 8 h; c terminus: a fixed tail appended
Everything with protein stability index lower than 3 is no; everything else, including exactly 3, is yes.

query.sequence: QYVITHAKVNILLVENDQQLQKIL [ACSBG2]
assigned.category: no
//
query.sequence: AFSSRLGGSRGAPGLLMAVGQDLY [DCAF4]
assigned.category: no
//
query.sequence: EPGPAAYGLKPLTPNSKYVKLNVG [KCTD13]
assigned.category: yes
//
query.sequence: LICKYDFIMLSCVQLQRIPLSAVY [TPRG1]
assigned.category: yes
//
query.sequence: AGAPPPSGSAVSTAPQQKPIGKIS [SRPK2]
assigned.category: yes
//
query.sequence: PSSMDLLIQDSPDSSTSPKGKQPT [NANOGP8]
assigned.category: yes
//
query.sequence: MNRSIPVEVDESEPYPSQLLKPIP [TRAF3IP2]
assigned.category: yes

---

- measurement.notes: protein stability index of a GFP-peptide fusion (GPS, HEK-293T) (PSI 1-6); higher = more stable
- assay.setup: treatment: MLN4924 1 uM, 8 h; c terminus: a fixed tail appended
measure.name: protein stability index

query.sequence: STDNIVSQWDVLSGDCDQRFRFPS [RBBP5]
observed.measurement: 3.67

query.sequence: CCHRSQKGFPGCKLGLHDNHWVPA [FBXO34]
observed.measurement: 2.16

query.sequence: GFFLLQLANHTGYIKVDWQRVEKD [FUNDC2]
observed.measurement: 2.11

query.sequence: VRLQSIHTMRKISNNITLREDQLD [INTS4]
observed.measurement: 3.3

query.sequence: NGVLGLSRLLFFLLGFLRIRVRGQ [LPCAT4]
observed.measurement: 2.44

query.sequence: LTGLQLKLGPALKIYEYHVKPLQT [SAMD13]
observed.measurement: 2.47

query.sequence: RYQQSKAAALKCQLCEKAPKEATV [TRIM9]
observed.measurement: 4.01

query.sequence: RKAAKSLIKLGLERFHGVGILGFN [ACSBG2]
observed.measurement: 2.51

query.sequence: SVVRDLKGYPDGVKSIVVKGYNIW [TLE6]
observed.measurement: 2.23

query.sequence: MQVDKKRVYLATDDPSLLKEAKTK [FUT8]
observed.measurement: 3.92

query.sequence: YLVQGLVEECQAALQNKDTYEPFC [KCTD10]
observed.measurement: 2.65

query.sequence: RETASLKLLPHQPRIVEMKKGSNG [PDZK1]
observed.measurement: 3.85

query.sequence: YQEIFQQLQRSWVKMDQKSKHLKE [TRIM43]
observed.measurement: 2.6

query.sequence: PFDLEQQWQDLMSIMEMQAMEVNT [NFE2L1]
observed.measurement: 4.03

query.sequence: PPNADLEQGFQEGVPNASVIMQVP [MFF]
observed.measurement: 4.72

query.sequence: SWASAQVQILCHTYWEHWTSQGQV [RTP4]
observed.measurement: 2.77

query.sequence: TLMGKLKLKNTVTIQQEKLLAEKE [SASS6]
observed.measurement: 3.39

query.sequence: EQAKKESEDQKRLKQAKELDRERA [CHCHD3]
observed.measurement: 5.48

query.sequence: VSSLISEKTNGATPLLMAARYGHL [FEM1C]
observed.measurement: 2.52

query.sequence: GYQRKCYFISTVKRSWTSAQNACS [CD69]
observed.measurement: 1.85

query.sequence: SNLLSRFTRNEFNLESKSTIGVEF [RAB11A]
observed.measurement: 2.72

query.sequence: ENHQPVSLSDLEIQASAGVISKKA [ZNF75A]
observed.measurement: 4.98

query.sequence: RKRRRNGSKEGNHHSTQPKRNKRN [FAM104B]
observed.measurement: 4.92

query.sequence: RNLYAYIQKLTQIETGENVTGMEL [PTPRD]
observed.measurement: 2.29

query.sequence: SADPARGLPRSRDCRVDLGSEVYR [PDLIM4]
observed.measurement: 3.83

query.sequence: NQLQTKVAVLEQEIKDKDQLVLRT [SASS6]
observed.measurement: 4.74

query.sequence: AALSEENTGKTYFFVANKYWRYDE [MMP1]
observed.measurement: 2.21

query.sequence: KEQSKELQMKLEKLREKERKKEAK [FAM50A]
observed.measurement: 5.55

query.sequence: MVSNPVHGLPFLPGTSFKDSTKTA [EFHC1]
observed.measurement: 3.97

query.sequence: SLTAAETLALQGTQGQEKMMMMGP [ZNF232]
observed.measurement: 4.14

query.sequence: LIAEVMGEDIPEKIKDEVHPEVKC [C8orf76]
observed.measurement: 4.31

query.sequence: GGSGGGGGGDEDGSLGSRAEPAPR [SMAD6]
observed.measurement: 5.41

query.sequence: NYDKLSRSIRQYYKKGIIRKPDIS [SPDEF]
observed.measurement: 2.74

query.sequence: VCTKYNLRITSGVVVCQCGLSIPS [RPAIN]
observed.measurement: 2.45

query.sequence: IEEACYAQTIPTKDRLEGLLAFKE [AUH]
observed.measurement: 3.55

query.sequence: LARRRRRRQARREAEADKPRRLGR [NOP53]
observed.measurement: 4.75

query.sequence: IETYGPHVPELEMLGRLGYLNHVR [MNAT1]
observed.measurement: 2.62

query.sequence: EKFSSSLHELSSRVEASHLTTSQE [FBF1]
observed.measurement: 5.01

query.sequence: NHEIMPGGSVNITCVAVGSPMPYV [PTPRD]
observed.measurement: 2.28

query.sequence: TETHVRDWVMWAVNEFSLKGVDFQ [ETS1]
observed.measurement: 2.72

query.sequence: ESTNPEKAHETLHQSLSLASSPKG [CDC25A]
observed.measurement: 5.45

query.sequence: IVIFCLETLPELKDDKDFTGTVHR [KCNA1]
observed.measurement: 2.16

query.sequence: TAGLKIFEPPAPGEGNSSQNSRNK [TNFSF13B]
observed.measurement: 5.24

query.sequence: LRNIQGLFAPLKLQMEFKAVQQVQ [POMP]
observed.measurement: 2.28

query.sequence: MWDSKKIGLRQHHCRKCGKAVCGK [WDFY2]
observed.measurement: 3.58

query.sequence: VIDKETIDLLAFTSVAELELLGLE [SDE2]
observed.measurement: 2.73

query.sequence: RISSPQVEEGDSRFLANEVLQENY [WEE1]
observed.measurement: 4.91

query.sequence: PHRMDRRLLALIYLAHASDVLENA [GOLPH3]
observed.measurement: 2.34

The values you see were collected from the supplement of paper PMC10567573.
